assay: Cytotoxicity against human SNU475 cells assessed as inhibition of cell proliferation after 72 hrs by sulforhodamine B assay; assay type: functional, cell-based, SNU-475; settings: Homo sapiens, SNU-475, 72 h; read-out: IC50
Measured quantity: IC50 (µM)

{"Query smiles": "O=C(N/N=C/c1ccccn1)c1cc(-c2ccc(F)cc2F)ccc1O", "Result number": 8.33}

----------
tested on: Hepatitis C virus; assay: Antiviral activity against HCV genotype 1b infected in Huh7/Rep-Feo1b cells assessed as inhibition of viral replication after 42 hrs by MTS assay; type: functional, organism-based, Hepacivirus hominis; settings: Huh-7, 42 h
pEC50: −log10 of the molar value.
So basically: pEC50 at 5 or higher? That is Y. Lower than 5? That is N.

{"Query smiles": "O=C(N/N=C/c1cccs1)c1cc(-c2ccc(F)cc2F)ccc1O", "System under test": "Hepatitis C virus", "Classification": "N"}
{"Query smiles": "O=C(N/N=C/c1cccc2ccccc12)c1cc(-c2ccc(F)cc2F)ccc1O", "System under test": "Hepatitis C virus", "Classification": "N"}
{"Query smiles": "O=C(N/N=C/c1ccccn1)c1cc(-c2ccc(F)cc2F)ccc1O", "System under test": "Hepatitis C virus", "Classification": "Y"}
{"Query smiles": "O=C(N/N=C/c1c(F)cccc1Cl)c1cc(-c2ccc(F)cc2F)ccc1O", "System under test": "Hepatitis C virus", "Classification": "Y"}

----------
system: Hepacivirus hominis; test: Inhibition of HCV NS5B RNA dependent RNA polymerase using UTP/[alpha-32P]UTP as substrate at 50 uM after 1 hr by liquid scintillation counter analysis
The source made the active and inactive calls. No cut-off for these calls is given here.

{"Query smiles": "CCc1ccc(/C=N/NC(=O)c2cc(-c3ccc(F)cc3F)ccc2O)s1", "System under test": "Hepacivirus hominis", "inhibition": "inactive"}
{"Query smiles": "Cc1ccc(/C=N/NC(=O)c2cc(-c3ccc(F)cc3F)ccc2O)s1", "System under test": "Hepacivirus hominis", "inhibition": "8%"}
{"Query smiles": "O=C(N/N=C/c1cccnc1)c1cc(-c2ccc(F)cc2F)ccc1O", "System under test": "Hepacivirus hominis", "inhibition": "8%"}
{"Query smiles": "O=C(N/N=C/c1c(F)cccc1Cl)c1cc(-c2ccc(F)cc2F)ccc1O", "System under test": "Hepacivirus hominis", "inhibition": "11%"}
{"Query smiles": "O=C(N/N=C/c1ccccc1Cl)c1cc(-c2ccc(F)cc2F)ccc1O", "System under test": "Hepacivirus hominis", "inhibition": "7%"}
{"Query smiles": "O=C(N/N=C/c1cccc2ccccc12)c1cc(-c2ccc(F)cc2F)ccc1O", "System under test": "Hepacivirus hominis", "inhibition": "inactive"}
{"Query smiles": "O=C(N/N=C/c1ccc(C(F)(F)F)cc1)c1cc(-c2ccc(F)cc2F)ccc1O", "System under test": "Hepacivirus hominis", "inhibition": "12%"}
{"Query smiles": "O=C(N/N=C/c1cccs1)c1cc(-c2ccc(F)cc2F)ccc1O", "System under test": "Hepacivirus hominis", "inhibition": "17%"}
{"Query smiles": "O=C(N/N=C/c1ccccn1)c1cc(-c2ccc(F)cc2F)ccc1O", "System under test": "Hepacivirus hominis", "inhibition": "inactive"}
{"Query smiles": "O=C(N/N=C/c1cccc(Br)c1)c1cc(-c2ccc(F)cc2F)ccc1O", "System under test": "Hepacivirus hominis", "inhibition": "9%"}
